Ki values for the protein given by its sequence, compiled from several publications.
Target chain: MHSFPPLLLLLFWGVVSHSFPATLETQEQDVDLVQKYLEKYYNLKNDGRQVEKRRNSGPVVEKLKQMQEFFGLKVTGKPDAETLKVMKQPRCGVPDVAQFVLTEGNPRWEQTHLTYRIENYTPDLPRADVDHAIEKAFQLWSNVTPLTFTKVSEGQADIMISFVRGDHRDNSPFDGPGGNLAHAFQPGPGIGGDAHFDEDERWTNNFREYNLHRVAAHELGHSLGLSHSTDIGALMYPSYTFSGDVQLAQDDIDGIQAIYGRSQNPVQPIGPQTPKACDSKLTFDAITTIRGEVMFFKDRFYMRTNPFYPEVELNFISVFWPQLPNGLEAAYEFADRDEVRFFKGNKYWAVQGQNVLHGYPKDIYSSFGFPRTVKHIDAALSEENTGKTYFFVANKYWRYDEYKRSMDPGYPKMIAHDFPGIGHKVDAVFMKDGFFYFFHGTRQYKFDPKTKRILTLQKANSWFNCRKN
Reported Ki maps to class as: low bin = under 0.07 µM, mid bin = from 0.07 µM up to 8 µM, high bin = 8 µM and over

Example cases with answers are listed next.
Cc1ccc(CCC[C@H](CC(=O)NO)C(=O)N[C@@H](CC2CCCCC2)C(=O)NCCCCN2CCOCC2)cc1
mid bin
NS(=O)(=O)c1ccc(CCNC(=O)CCNC(=O)[C@H](CC2CCCCC2)NC(=O)[C@H](CCCc2ccc(Cl)cc2)CC(=O)NO)cc1
mid bin
CC(C)C[C@H](NC(=O)C(CCc1ccccc1)CP(=O)(O)[C@H](C)NC(=O)[C@H](C)NC(=O)C1CCCN1C(=O)c1ccccc1)C(=O)Nc1ccccc1 (some centres not stated)
mid bin
O=C(NO)C1(S(=O)(=O)c2ccc(OCCCn3nnc(-c4ccc(OC(F)(F)F)cc4)n3)cc2)CCOCC1
high bin
CNC(=O)[C@H](Cc1ccccc1)NC(=O)[C@H](CCCC(=O)NCc1ccccc1)CC(=O)NO
high bin
CC(C)C[C@H](CC(=O)NO)C(=O)N[C@@H](Cc1c[nH]c2ccccc12)C(=O)NCCSCCN1CCOCC1
low bin

Lab note: which band did `Cc1cc(C)cc(CC[C@H](N[C@H](C)C(=O)O)C(=O)N[C@@H](CC(C)C)C(=O)Nc2ccccc2)c1` land in? high bin
